Please provide measured protein stability index for the entries that follow.
test_summary: protein stability index of a GFP-peptide fusion (GPS, HEK-293T) (PSI 1-6); higher = more stable;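 note: 24-mer peptide tiles fused after GFP, lentivirally expressed, FACS-sorted into six equal bins by GFP/DsRed ratio, decoded by Illumina sequencing, PSI is the read-weighted mean bin number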
test_context: treatment: DMSO; c terminus: a fixed tail appended
Give the figure by itself; no unit, no explanation.

The value of protein stability index measured for the sequence QIKCIELKSELGRKWHKASNYIFV [P2RY14] turned out to be 2.72

The value of protein stability index measured for the sequence EISLEDLIERERSALGPNVTKITL [ZC3H15] turned out to be 2.77

The value of protein stability index measured for the sequence DLTASHDAALLEMENNHTVAITIL [MTUS2] turned out to be 2.86

The value of protein stability index measured for the sequence RQKEVDFCISLLRERFMECLMIGR [INTS3] turned out to be 2.52

The value of protein stability index measured for the sequence VHRDLKPENLLLASKCKGAAVKLA [CAMK2B] turned out to be 2.83

The value of protein stability index measured for the sequence RTRPRKPIRCGEVLFAVGGWCSGD [KLHL20] turned out to be 2.39

The value of protein stability index measured for the sequence KKAAESLRRSVEKYNSARADFEQK [FCHO1] turned out to be 4.2

The value of protein stability index measured for the sequence EPPHNLFCAPGSWEWNELDHIMEI [SERTAD3] turned out to be 2.93

The value of protein stability index measured for the sequence EVDWEYFYGLLFTSENLKLVHIVC [DFFB] turned out to be 3.34

The value of protein stability index measured for the sequence RLGQRQPPPSEPTQGPEIVPRGAG [DNAJC4] turned out to be 4.83

The value of protein stability index measured for the sequence QLLKNNEKLITWLNKELNENQLVR [SASS6] turned out to be 1.88

The value of protein stability index measured for the sequence DYIMDEDQSKLAGLLDLNNAILQL [ESRRG] turned out to be 2.35

The value of protein stability index measured for the sequence MCYGYGCGCGSFCRLGYGCGYEGC [KRTAP19-2] turned out to be 2.35

The value of protein stability index measured for the sequence METNGSTEGSRSRSRSLDIQPSSE [SPAG8] turned out to be 5.54

The value of protein stability index measured for the sequence LACGTMSSTCGQLASYPLALVRTR [SLC25A25] turned out to be 1.96

The value of protein stability index measured for the sequence IIHHMRLQAKALQLIVTARTTRGL [INTS4] turned out to be 2.5

The value of protein stability index measured for the sequence AQAQALAAQAAAAAHAAQAHRERN [PI4K2A] turned out to be 4.9

The value of protein stability index measured for the sequence TCICYLCMFQEHKNHSTVTVEEAK [TRIM29] turned out to be 2.24

The value of protein stability index measured for the sequence YIHFFHTVLKQIAPEYFEKNEPYL [DENND6A] turned out to be 1.96

The value of protein stability index measured for the sequence LCDGNPRRPSPVLRHLELLDEFAR [SCNN1D] turned out to be 3.26
